These measurements were taken from paper PMC4652773.

# Target entity: T1, BsaWI W262A (UniProt Q6UQ65 1-272, W262A)
# T1 sequence: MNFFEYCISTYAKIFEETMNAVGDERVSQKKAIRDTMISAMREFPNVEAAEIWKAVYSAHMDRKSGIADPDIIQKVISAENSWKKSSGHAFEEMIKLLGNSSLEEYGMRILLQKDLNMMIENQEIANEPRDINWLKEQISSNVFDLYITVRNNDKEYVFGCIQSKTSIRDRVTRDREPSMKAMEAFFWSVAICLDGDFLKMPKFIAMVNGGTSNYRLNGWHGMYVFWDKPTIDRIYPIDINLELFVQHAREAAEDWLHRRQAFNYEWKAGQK
# Experiment description: EMSA; 5 mM Ca2+; EMSA: 40 mM Tris-acetate pH 8.3, 0.1 mg/ml BSA, 10% glycerol, 5 mM CaCl2 or 0.1 mM EDTA, 1 nM DNA, room temperature, 15 min
# Test parameters: protein: recombinant; chain copies: 2; label: 33P; blunt
pKd: −log10 of the molar value.
Measured property: pKd

> print(dat)
                                     binder  measured
1  SP (dsDNA) DNA 1: GCCTTTCGGTTTACCGGTGTCATTCCGCTG DNA 2: CAGCGGAATGACACCGGTAAACCGAAAGGC      8.57
